target: UniProtKB Q86C09
Assay endpoint: IC50 (nM)
Numbers only here, please. The scale is nM.

query: Request body: readout IC50, system UniProtKB Q86C09, query O=P([O-])(O)C(C[n+]1ccn(CCCc2ccc(F)c(F)c2)c1)P(=O)(O)O (stereo not shown) . Return the value.
result: 120

====

target: UniProt:P22939
Sequence (P22939 whole entry): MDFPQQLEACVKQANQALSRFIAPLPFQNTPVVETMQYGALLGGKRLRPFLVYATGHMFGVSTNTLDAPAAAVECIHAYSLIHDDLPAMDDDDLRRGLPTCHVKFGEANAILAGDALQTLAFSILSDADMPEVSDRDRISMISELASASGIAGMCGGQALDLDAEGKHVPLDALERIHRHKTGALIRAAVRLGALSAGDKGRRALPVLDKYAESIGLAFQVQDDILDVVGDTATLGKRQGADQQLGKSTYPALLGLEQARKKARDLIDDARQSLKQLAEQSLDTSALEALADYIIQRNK
Assay endpoint: pIC50
Quick note: pIC50 values are minus log10 of concentrations in mol/L.

query: Request body: readout pIC50, system UniProt:P22939, query O=P([O-])(O)C(C[n+]1ccn(CCCc2ccc(F)c(F)c2)c1)P(=O)(O)O (stereo not shown) . Return the value.
result: 6.92

====

Molecular target: HsFPPS (Homo sapiens, UniProt P14324)
Sequence (P14324 1-419): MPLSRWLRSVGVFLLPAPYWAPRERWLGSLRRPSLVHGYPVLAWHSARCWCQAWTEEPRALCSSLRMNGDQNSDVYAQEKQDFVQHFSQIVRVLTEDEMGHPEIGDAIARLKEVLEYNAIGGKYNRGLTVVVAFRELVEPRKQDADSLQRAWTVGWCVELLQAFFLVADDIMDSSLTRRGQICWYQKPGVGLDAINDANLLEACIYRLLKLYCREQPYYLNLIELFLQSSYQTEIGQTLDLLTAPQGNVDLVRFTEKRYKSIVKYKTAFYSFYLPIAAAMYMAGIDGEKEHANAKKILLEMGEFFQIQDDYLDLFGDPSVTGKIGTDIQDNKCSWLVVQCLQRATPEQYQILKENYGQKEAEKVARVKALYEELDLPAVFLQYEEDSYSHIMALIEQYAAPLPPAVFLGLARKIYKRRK
Assay endpoint: pIC50
Quick note: pIC50 values are minus log10 of concentrations in mol/L.

query: Would you mind telling me what pIC50 value was observed for O=P([O-])(O)C(C[n+]1ccn(CCCc2ccc(F)c(F)c2)c1)P(=O)(O)O (stereo not shown) [compound 11] ?
result: 7.19

====

biological target: SmFPPS (Schistosoma mansoni, UniProt G4VEL6)
Assay endpoint: pIC50
Quick note: pIC50 values are minus log10 of concentrations in mol/L.

query: Would you mind telling me what pIC50 value was observed for O=P([O-])(O)C(C[n+]1ccn(CCCc2ccc(F)c(F)c2)c1)P(=O)(O)O (stereo not shown) [compound 11] ?
result: 6.24
